- Test system: T47D STAT5-luciferase reporter, prolactin-induced, luminescence
- PROCEDURE_SUMMARY: reduction of prolactin-induced STAT5 luciferase – cell-based, luminescence, T47D, assay provider, late-stage follow-up (AID 652026)
- RECORDED_CONDITIONS: at 10 µM; stronger effect = lower value
The source made the active and inactive calls.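 The calls were made as follows: active = STAT5 reporter signal fold change below 0.5 at a 10 µM dose; inactive = the rest.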
VALUE_TYPE: fold change

Example cases with answers are listed next.
CN1/C(=C\C(=O)CN2CCCC2)C(C)(C)c2ccccc21
0.704 (inactive)
COC(=O)C1CCCCN1CC(=O)/C=C1/N(C)c2ccccc2C1(C)C (stereo unspecified)
0.906 (inactive)
CN1/C(=C\C(=O)Cn2c(=O)c(C#N)cn(C)c2=O)C(C)(C)c2ccccc21
0.739 (inactive)
CN1/C(=C\C(=O)Cn2cc(C(F)(F)F)ccc2=O)C(C)(C)c2ccccc21
0.971 (inactive)

The reported fold change of the molecule `CC(C)(C)C(=O)C[n+]1ccc2ccccc2c1` was 0.696 (inactive)

molecule `Cc1cc[n+](CC(=O)/C=C2\N(C)c3ccccc3C2(C)C)c(C)c1` , fold change observed: 0.67 (inactive)

Data point: `CN1/C(=C\C(=O)CN2C(=O)c3ccccc3C2=O)C(C)(C)c2ccccc21` ; fold change = 0.859 (inactive)

Reported fold change ( `CN1/C(=C\C(=O)CN2CCc3ccccc3C2)C(C)(C)c2ccccc21` ) = 0.962 (inactive)
